Each item that follows carries a reported pKd.
Target: T1, human LRP6 E1E2 (P21-P630) with a C-terminal 10x His tag (human, UniProt O75581 21-630, labeled with the dye NT-647 in the MST experiments (legends: Cy-5 dye-labeled))
T1 construct: low-density lipoprotein receptor-related protein 6 (LRP6), human, ectodomains E1 and E2, residues P21-P630; also called LPR6 E1E2; source: High Five insect cells, secreted, purified (Ni-NTA, HiTrapQ, SEC); for the crystal co-expressed with SOSTtr177
T1 sequence (looked up): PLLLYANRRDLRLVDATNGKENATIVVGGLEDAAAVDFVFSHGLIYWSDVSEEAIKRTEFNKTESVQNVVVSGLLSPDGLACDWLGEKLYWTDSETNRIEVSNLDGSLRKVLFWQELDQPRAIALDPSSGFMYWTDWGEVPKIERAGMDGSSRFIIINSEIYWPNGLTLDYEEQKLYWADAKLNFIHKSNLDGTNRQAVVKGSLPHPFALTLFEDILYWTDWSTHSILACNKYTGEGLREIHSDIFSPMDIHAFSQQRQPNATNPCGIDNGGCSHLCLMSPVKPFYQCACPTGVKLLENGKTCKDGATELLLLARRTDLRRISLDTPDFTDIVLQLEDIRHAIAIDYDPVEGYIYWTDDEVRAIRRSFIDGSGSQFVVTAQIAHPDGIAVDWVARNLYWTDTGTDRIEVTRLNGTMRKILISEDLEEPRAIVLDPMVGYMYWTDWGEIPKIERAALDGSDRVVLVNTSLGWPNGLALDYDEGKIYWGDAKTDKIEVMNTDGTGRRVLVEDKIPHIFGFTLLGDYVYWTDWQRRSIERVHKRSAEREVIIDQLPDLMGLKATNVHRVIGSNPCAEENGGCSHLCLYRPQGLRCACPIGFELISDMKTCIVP
Assay: MST; labeled LRP6 E1E2 or LRP6 E1 (~5 nM) titrated with unlabeled Smo-SOST, MBP-SOST, tags or peptides; 20 mM Tris-Cl pH 7.0, 200 mM NaCl, 0.5 mg/ml BSA, 0.05% Tween 20; 22 °C; three independent experiments
Conditions: both partners purified
To interpret pKd, take it as minus log10 of a concentration measured in moles per litre.

human SOSTtr187 (Q24-A187) with an N-terminal His6-SUMO tag (domain or fragment, sclerostin (SOST), human, residues Q24-A187; also called Smo-SOSTtr187; source: High Five insect cells, secreted, purified; tag not cleaved; not shown: His6, N-terminal, kept; SUMO, N-terminal, kept) QGWQAFKNDATEIIPELGEYPEPPPELENNKTMNRAENGGRPPHHPFETKDVSEYSCRELHFTRYVTDGPCRSAKPVTELVCSGQCGPARLLPNAIGRGKWWRPSGPDFRCIPDRYRAQRVQLLCPGGEAPRARKVRLVASCKCKRLTRFHNQSELKDFGTEAA
6.22
human SOSTtr177 (Q24-S177) with an N-terminal His6-SUMO tag (domain or fragment, sclerostin (SOST), human, residues Q24-S177; also called Smo-SOSTtr177; source: High Five insect cells, secreted, purified; tag not cleaved; not shown: His6, N-terminal, kept; SUMO, N-terminal, kept) QGWQAFKNDATEIIPELGEYPEPPPELENNKTMNRAENGGRPPHHPFETKDVSEYSCRELHFTRYVTDGPCRSAKPVTELVCSGQCGPARLLPNAIGRGKWWRPSGPDFRCIPDRYRAQRVQLLCPGGEAPRARKVRLVASCKCKRLTRFHNQS
6.17
human SOSTtr204 (Q24-A204) with an N-terminal His6-SUMO tag (domain or fragment, sclerostin (SOST), human, residues Q24-A204; also called Smo-SOSTtr204; source: High Five insect cells, secreted, purified; tag not cleaved; not shown: His6, N-terminal, kept; SUMO, N-terminal, kept) QGWQAFKNDATEIIPELGEYPEPPPELENNKTMNRAENGGRPPHHPFETKDVSEYSCRELHFTRYVTDGPCRSAKPVTELVCSGQCGPARLLPNAIGRGKWWRPSGPDFRCIPDRYRAQRVQLLCPGGEAPRARKVRLVASCKCKRLTRFHNQSELKDFGTEAARPQKGRKPRPRARSAKA
6.54
human SOSTtr178 (Q24-E178) with an N-terminal His6-SUMO tag (domain or fragment, sclerostin (SOST), human, residues Q24-E178; also called Smo-SOSTtr178; source: High Five insect cells, secreted, purified; tag not cleaved; not shown: His6, N-terminal, kept; SUMO, N-terminal, kept) QGWQAFKNDATEIIPELGEYPEPPPELENNKTMNRAENGGRPPHHPFETKDVSEYSCRELHFTRYVTDGPCRSAKPVTELVCSGQCGPARLLPNAIGRGKWWRPSGPDFRCIPDRYRAQRVQLLCPGGEAPRARKVRLVASCKCKRLTRFHNQSE
6.17

Attention now turns to another entry.
Q. Can you share its pKd? I mean this binder: human WT SOST (Q24-Y213) with an N-terminal His6-MBP tag (natural protein, sclerostin (SOST), human, residues Q24-Y213; also called MBP-SOST; MBP-SOST WT; source: High Five insect cells, secreted, purified; tag not cleaved; not shown: His6, N-terminal, kept; MBP, N-terminal, kept) QGWQAFKNDATEIIPELGEYPEPPPELENNKTMNRAENGGRPPHHPFETKDVSEYSCRELHFTRYVTDGPCRSAKPVTELVCSGQCGPARLLPNAIGRGKWWRPSGPDFRCIPDRYRAQRVQLLCPGGEAPRARKVRLVASCKCKRLTRFHNQSELKDFGTEAARPQKGRKPRPRARSAKANQAELENAY
A. 6.77
